test protocol: chemical genetic growth profiling, strain panel (AID 1159580);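 note: tested at 20 µM; growth read once vehicle control cultures reached saturation at 30 °C; lower values mean less growth of the strain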
experimental conditions: S. cerevisiae deletion strains, growth OD, locus YDR137W, strain rgp1
About 2,000 (36%) of roughly 5,500 compounds were called active. Inconclusive results (about 18%) are left out. Cut-off read from the data, not from the text of the source: active = normalized growth mostly below about 0.91 (no sharp cut-off); inconclusive = no clear call, values can overlap the other calls; inactive = mostly above about 0.92. This is one part of the list.
Outcomes you can answer with include only these: YES (active), NO (inactive)

See these solved cases before continuing.
INSERT INTO assay_data (molecule, class) VALUES
  ('CC1(C)O[C@H]2[C@H](O)C[C@](O)(C(N)=O)C[C@H]2O1', 'NO'),
  ('C=C1CCC(OC(C)=O)/C(C)=C/C[C@@H]2[C@@H]1CC2(C)C (some centres not stated)', 'NO');

Q: Recorded test call requested for COC(=O)[C@@H]1OC(=O)[C@H]2O[C@@]23[C@@]1(C)CCC1[C@@]2(C)CCC(=O)C(C)(C)C2C[C@@H](OC(C)=O)[C@]13C (some centres not stated)
Ans: NO

Q: Recorded test call requested for COc1c2ccoc2c(OC)c2oc(=O)ccc12
Ans: NO

Q: Recorded test call requested for O=C1NC(=O)C(=O)C(=O)N1
Ans: NO

Q: Recorded test call requested for CC(C)C(=O)Nc1ccc([N+](=O)[O-])c(C(F)(F)F)c1
Ans: NO

Q: Recorded test call requested for OCCOCCN1CCN(C2=Nc3ccccc3Sc3ccccc32)CC1
Ans: NO

Q: Recorded test call requested for CCCCNc1ccc(C(=O)OCCN(C)C)cc1
Ans: YES

Q: Recorded test call requested for CCNC(=O)CC[C@H](N)C(=O)O
Ans: NO

Q: Recorded test call requested for CC1OC1P(=O)(O)O (configuration not stated)
Ans: NO
